This collection of values is drawn from PubChem BioAssay (NCATS).

Experiment Summary: qHTS profiling for inhibitors of Plasmodium falciparum proliferation (AID 504749); further: nearly all actives have a fitted effect of over 60% in size; further: potency means the concentration at half of the fitted maximal effect
Test Conditions: P. falciparum in erythrocytes, SYBR Green DNA, 72 h; parasite line A
Inconclusive results are not listed. The source made the active and inactive calls. The call rests on the fitted dose curve; in most records, active means well fitted inhibition curve with a large enough effect; inconclusive means small, poorly fitted or top-dose-only effect; inactive means flat fitted curve, though single readings scatter.
// reported Potency per item

Use these answered entries as a reference point.
| Compound Structure String | Potency |
| --- | --- |
| CCCCc1oc2ccccc2c1C(=O)c1cc(I)c(OCCN(CC)CC)c(I)c1 | 4.47 µM (active) |
| CCOC(=O)Nc1ccc(NCc2ccc(F)cc2)nc1N | 7.94 µM (active) |
| Clc1ccccc1C(c1ccccc1)(c1ccccc1)n1ccnc1 | 0.631 µM (active) |

Ask | Give reported Potency value for "O=C1c2c(O)ccc(O)c2C(=O)c2c(NCCNCCO)ccc(NCCNCCO)c21"
Reply | 3.16 µM (active)

Ask | Provide one value: measured Potency of "CC#C[C@]1(O)CC[C@H]2[C@@H]3CCC4=CC(=O)CCC4=C3[C@@H](c3ccc(N(C)C)cc3)C[C@@]21C"
Reply | 8.91 µM (active)

Ask | # return recorded Potency for input "CC[C@@]1(O)C(=O)OCc2c1cc1n(c2=O)Cc2cc3c(CN(C)C)c(O)ccc3nc2-1"
Reply | 3.55 µM (active)

###

Measured Target: Vitamin D3 receptor (Homo sapiens) (UniProt P11473)
Sequence (P11473 whole entry, looked up): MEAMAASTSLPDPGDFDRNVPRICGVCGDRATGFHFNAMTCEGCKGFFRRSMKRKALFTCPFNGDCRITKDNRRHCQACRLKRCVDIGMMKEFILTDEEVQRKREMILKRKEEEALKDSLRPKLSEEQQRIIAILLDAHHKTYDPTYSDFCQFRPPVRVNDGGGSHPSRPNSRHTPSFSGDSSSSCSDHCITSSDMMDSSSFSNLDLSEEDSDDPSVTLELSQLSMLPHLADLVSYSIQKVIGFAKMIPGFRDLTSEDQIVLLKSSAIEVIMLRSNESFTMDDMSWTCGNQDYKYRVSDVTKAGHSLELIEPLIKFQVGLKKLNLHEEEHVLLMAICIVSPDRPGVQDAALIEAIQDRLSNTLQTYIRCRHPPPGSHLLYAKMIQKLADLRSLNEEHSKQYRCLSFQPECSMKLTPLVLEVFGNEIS
Experiment Summary: qHTS assay for small molecule antagonists of vitamin D receptor signaling (AID 588541);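 further: receptor activated by calcitriol during compound treatment; on the % scale 0 is the no-effect control and ±100 the full control effect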
Test Conditions: HEK293T VDR-UAS-bla, beta-lactamase ratio, antagonist mode; series mostly up to 76.7 µM
Records with an inconclusive call do not appear. Activity calls are given as the source filed them. The call rests on the fitted dose curve.
Measured Metric: outcome

Please review the following examples before continuing.
| Molecule | outcome |
| --- | --- |
| CC(COc1ccccc1)N(CCCl)Cc1ccccc1 (configuration not stated) | inactive |
| C[C@](N)(Cc1ccc(O)c(O)c1)C(=O)O | inactive |
| Cc1cn([C@H]2C=C[C@@H](CO)O2)c(=O)[nH]c1=O | inactive |
| O=c1[nH]cc(F)c(=O)[nH]1 | inactive |
| O=c1c(-c2ccc(O)cc2)coc2cc(O)cc(O)c12 | inactive |

Ask | Note down outcome recorded for "COc1ccc2[nH]cc(CCNC(C)=O)c2c1"
Reply | inactive

Ask | Look up outcome of "CCOC(=O)C(C)(C)Oc1ccc(Cl)cc1" and report it.
Reply | inactive

###

Experiment Summary: qHTS profiling of the MIPE4 collection as inhibitors of Plasmodium falciparum (HB3) proliferation (AID 743347);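 further: plate controls were DMSO vehicle wells for no effect and artemisinin wells for full effect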
Test Conditions: P. falciparum HB3 in erythrocytes, SYBR Green DNA, 72 h; at 28.5 µM (top of the series) unless noted
Recorded growth, % of control, one value per entry.
Please state the figure in %; there is no need to write the unit.

Ask | Note down growth, % of control recorded for "COc1cc2nc(N3CCN(C(=O)c4ccco4)CC3)nc(N)c2cc1OC"
Reply | 2.87

Ask | Return growth, % of control for the following molecule: "COc1nc(C)nc(Cl)c1NC1=NCCN1"
Reply | 98.4

Ask | Specify growth, % of control for COc1ccc(C2CNC(=O)C2)cc1OC1CCCC1 (stereo unspecified) and stop.
Reply | 98.4

Ask | Return value of growth, % of control for input "CN1CCC(=C2c3ccccc3CC(=O)c3sccc32)CC1" , no commentary.
Reply | 12.6

Ask | # return recorded growth, % of control for input COc1ccccc1OCC(O)CN1CCN(CC(=O)Nc2c(C)cccc2C)CC1 (stereo unspecified)
Reply | 101

Ask | Let me know recorded growth, % of control for "Cc1cc(C(C)(C)C)c(O)c(C)c1CC1=NCCN1" , thanks.
Reply | 98.3

###

Test system: CRL-7250
Experiment Summary: Cytotoxic Profiling of Annotated Libraries Using Quantitative High-Throughput Screening (AID 1296008); further: on the % scale 0 is the no-effect control and ±100 the full control effect; nearly all actives have a fitted effect of over 60% in size
Test Conditions: Five cell lines viability, CellTiter-Glo ATP luminescence, 48-72 h; stronger effect = lower value
Results filed as inconclusive are left out.
Listing of recorded max response by entry.
Write down the numeric answer in % and omit the unit.

See these solved cases before continuing.
| Compound | max response (%) |
| --- | --- |
| OCCN1CCN(CCCN2c3ccccc3Sc3ccc(C(F)(F)F)cc32)CC1 | 1.65 |
| Nc1nc2c(ncn2COC(CO)CO)c(=O)[nH]1 | 1.91 |
| CN(C)c1nc(N(C)C)nc(N(C)C)n1 | -4.79 |
| CC(=O)OCC(CCn1cnc2cnc(N)nc21)COC(C)=O | 3.84 |
| CN(C)CCCN1c2ccccc2CCc2ccc(Cl)cc21 | -24.3 |

Ask | Using known records, supply max response for "CN1CCN(CCCN2c3ccccc3Sc3ccc(Cl)cc32)CC1"
Reply | -6.94

Ask | Answer with reported max response of "COc1nc(C)nc(Cl)c1NC1=NCCN1"
Reply | -8.35

Ask | Name the recorded max response of the compound listed here: COc1cc2nc(N(C)CCCNC(=O)C3CCCO3)nc(N)c2cc1OC (centres undefined)
Reply | -3.88

Ask | Report measured max response; entry is CCCNCC(O)COc1ccccc1C(=O)CCc1ccccc1 (centres undefined)
Reply | -5.96

Ask | Consider the compound "CC(C)(C)C(=O)Oc1ccc(S(=O)(=O)Nc2ccccc2C(=O)NCC(=O)O)cc1" and give its recorded max response.
Reply | 4.89

###

Experiment Summary: Quantitative High-Throughput drug screen in 47 multiple myeloma cell lines against the NCATS MIPE library collection: OCIMY1_PLB cell viability assay (AID 1918979); further: nearly all actives have a fitted effect of over 35% in size;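 on viability: 100% = DMSO-only wells and 0% = cell-free media-only wells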
Test Conditions: OCI-MY1 myeloma viability, CellTiter-Glo ATP, 48 h; series mostly up to 45.8 µM
Inconclusive results are not listed. Calls of active or inactive are those of the source. Calls come from the whole dose curve; as a rule, active = well fitted cell-killing curve with a large enough effect; inconclusive = small, poorly fitted or top-dose-only effect, or effect the other way; inactive = no such curve, though single readings can be large or run the other way.
Hello, when you answer, please use one of the following outcomes: 1 (yes) (active), 0 (no) (inactive)

As a guide, the following entries are already answered.
| Compound | Cat |
| --- | --- |
| CC#C[C@]1(O)CC[C@H]2[C@@H]3CCC4=CC(=O)CCC4=C3[C@@H](c3ccc(N(C)C)cc3)C[C@@]21C | 1 (yes) |
| Clc1ccccc1C(c1ccccc1)(c1ccccc1)n1ccnc1 | 0 (no) |
| O=C1N(c2ccccc2)c2ccccc2C1(Cc1ccncc1)Cc1ccncc1 | 0 (no) |
| CC1COc2c(N3CCN(C)CC3)c(F)cc3c(=O)c(C(=O)O)cn1c23 (configuration not stated) | 0 (no) |
| O=C(CCCN1CCC(O)(c2ccc(Cl)cc2)CC1)c1ccc(F)cc1 | 0 (no) |

Next item in the queue.
Ask | # outcome recorded in this test, key = "Cc1ccc(-c2cc(C(F)(F)F)nn2-c2ccc(S(N)(=O)=O)cc2)cc1"
Reply | 0 (no)

###

Tested on: PC26
Experiment Summary: qHTS profiling for inhibitors of Plasmodium falciparum proliferation (AID 504749); further: nearly all actives have a fitted effect of over 60% in size
Test Conditions: P. falciparum in erythrocytes, SYBR Green DNA, 72 h; series mostly up to 28.7 µM
Results filed as inconclusive are left out. Calls of active or inactive are those of the source. Calls come from the whole dose curve; as a rule, active = well fitted inhibition curve with a large enough effect; inconclusive = small, poorly fitted or top-dose-only effect; inactive = flat fitted curve, though single readings scatter.
Pick from yes (1) = active, no (0) = inactive when you respond.

The examples below pair each entry with its known result.
| Compound | Cat |
| --- | --- |
| OCCN1CCN(CCCN2c3ccccc3Sc3ccc(C(F)(F)F)cc32)CC1 | yes (1) |
| COc1cc2c(c(OC)c1OC)-c1ccc(OC)c(=O)cc1[C@@H](NC(C)=O)CC2 | no (0) |
| Cn1cnc2c1c(=O)[nH]c(=O)n2C | no (0) |
| Cc1cn([C@H]2C[C@H](N=[N+]=[N-])[C@@H](CO)O2)c(=O)[nH]c1=O | no (0) |
| CCOC(=O)C(C)(C)Oc1ccc(Cl)cc1 | no (0) |

Ask | Entry CCCNCC(O)COc1ccccc1C(=O)CCc1ccccc1 (stereo unspecified) : call = ?
Reply | yes (1)

Ask | Answer briefly: the call reported for "Cn1ccc2cc3c(cc21)CCN3C(=O)Nc1cccnc1" in this assay.
Reply | yes (1)

Ask | Tell me the assay call for "CC(C)C(=O)Nc1ccc([N+](=O)[O-])c(C(F)(F)F)c1" please.
Reply | no (0)

Ask | Hello, I am checking results. What call was entered for "O=C(Nc1ccc([N+](=O)[O-])cc1Cl)c1cc(Cl)ccc1O" ?
Reply | no (0)

Ask | Tell me the assay call for "NC(=O)NO" please.
Reply | no (0)

Ask | Which outcome was assigned to "Clc1ccc2c(c1)C(N1CCNCC1)=Nc1ccccc1O2" in this test?
Reply | no (0)

Ask | # fetch the recorded call for "O=C1N(c2ccccc2)c2ccccc2C1(Cc1ccncc1)Cc1ccncc1" here
Reply | no (0)

Ask | Test call for this compound, please: "CC(C)(C)C(=O)Oc1ccc(S(=O)(=O)Nc2ccccc2C(=O)NCC(=O)O)cc1"
Reply | no (0)

Ask | Which outcome did this test record for the compound "Clc1ccccc1C(c1ccccc1)(c1ccccc1)n1ccnc1" ?
Reply | yes (1)

Ask | I'd appreciate the recorded outcome for CN1CCN2c3ccccc3Cc3ccccc3C2C1 (stereo unspecified) from this test.
Reply | no (0)

Ask | I would be grateful if you could indicate the recorded call for "CCC1(c2ccccc2)C(=O)NCNC1=O" .
Reply | no (0)

Ask | Please share the test call associated with "NS(=O)(=O)c1cc2c(cc1Cl)NCNS2(=O)=O" .
Reply | no (0)
